# credit: patent US6545032B1

Assign Mean to each entry below.
target.or.test.system: mu opiate receptor (Rattus norvegicus, UniProt P33535)
Construct: from tissue; host or cells: rat brain membranes/homogenate
Sequence (P33535 whole entry): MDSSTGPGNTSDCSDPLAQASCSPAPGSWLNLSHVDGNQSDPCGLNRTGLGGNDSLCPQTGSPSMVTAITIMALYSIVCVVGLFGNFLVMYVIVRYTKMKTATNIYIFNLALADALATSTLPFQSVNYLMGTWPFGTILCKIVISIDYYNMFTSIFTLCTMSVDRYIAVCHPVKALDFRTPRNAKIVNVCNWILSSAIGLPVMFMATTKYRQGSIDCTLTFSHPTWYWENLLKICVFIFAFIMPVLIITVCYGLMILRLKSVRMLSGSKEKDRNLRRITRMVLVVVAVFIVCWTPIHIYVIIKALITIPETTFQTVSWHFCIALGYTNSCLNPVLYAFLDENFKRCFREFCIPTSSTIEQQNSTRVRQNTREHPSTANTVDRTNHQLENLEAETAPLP
protocol.text: Inhibition of [3H]DAMGO binding to the mu opiate receptor in rat brain homogenates
Design: unit not given beside the values
condition.parameters: mean bound radioactivity of [3H]DAMGO; 0.08 mg of compound per milliliter, 7 nM 3H-labeled DAMGO, rat brain membranes

# Mean (molecule: CC(C)c1nc(CC2CC3CCC2C3)n2c1NC(=O)C2C(C)C (stereo not drawn) [Pool 155] ) is 918.35

# Mean (molecule: Cc1nc(C(C)C)c2n1C(C)C(=O)N2 (stereo not drawn) [Pool 18] ) is 989.15

# Mean (molecule: CCCCCCc1nc(C(C)C)c2n1C(C(C)C)C(=O)N2 (racemic) [Pool 122] ) is 817.3
